assay_system: T1, human CD47 (human, UniProt Q08722 19-292)
T1 construct: also called hCD47; CD47 on OV10 hCD47 cells, human RBCs, Jurkat cells and normal human cells
experiment_notes: flow cytometry, human RBCs
Reported Kd by item:
Please reply with the bare figure in pM and do not write the unit itself.

[[record]]
binder = "VLX8hum_07 IgG2 (antibody, V domains shown) VH: QVQLVQSGAEVKKPGSSVKVSCKASGYSFTNYYIHWVRQAPGQGLEWMGYIDPLNGDTTYNQKFKGRVTITADESTSTAYMELSSLRSEDTAVYYCARGGKRAMDYWGQGTLVTVSS VL: DIQMTQSPSSLSASVGDRVTITCRASQSISNYLNWYQQKPGKAPKLLIYYTSRLYSGVPSRFSGSGSGTDFTLTISSLQPEDFATYYCQQGNTLPWTFGQGTKVEIKR"
unit_descriptor = "pM"
numeric_readout = 671


*Q* Given the binder VLX8hum_06 IgG2 (antibody, V domains shown) VH: QVQLVQSGAEVKKPGASVKVSCKASGYSFTNYYIHWVRQAPGQGLEWMGYIDPLNGDTTYNQKFKGRVTMTRDTSTSTVYMELSSLRSEDTAVYYCARGGKRAMDYWGQGTLVTVSS VL: DIQMTQSPSSLSASVGDRVTITCRASQSISNYLNWYQQKPGKAPKLLIYYTSRLYSGVPSRFSGSGSGTDFTLTISSLQPEDFATYYCQQGNTLPWTFGQGTKVEIKR , what is its reported Kd?
*A* 246

*Q* Try this binder too: VLX8hum_09 IgG2 (antibody, V domains shown) VH: QVQLVQSGAEVKKPGSSVKVSCKASGYSFTNYYIHWVRQAPGQGLEWMGYIDPLNGDTTYAQKFQGRVTITADESTSTAYMELSSLRSEDTAVYYCARGGKRAMDYWGQGTLVTVSS VL: DIQMTQSPSSLSASVGDRVTITCRASQSISNYLNWYQQKPGKAPKLLIYYTSRLYSGVPSRFSGSGSGTDFTLTISSLQPEDFATYYCQQGNTLPWTFGQGTKVEIKR
*A* 1740

Where do the numbers come from? From patent US20220313819A1.
